Value source: patent US20250122183A1

target: KAT7+JADE1+EAF6+ING5 4 protein complex (Homo sapiens (Human)); assay: KAT7 JADE1 assay (SAMDI-MS acetylation of H3 1-21 peptide); format: biochemical; conditions: replicate number in parentheses; read-out: KAT7 JADE1 Ki (nM) (replicate)
The compounds listed here are annotated with their Ki.
Just the number please, in nM, no unit attached.

For orientation, consider the following solved cases.
compound	test system	Ki / nM
COCC(OC)c1cc(OC)c(S(=O)(=O)Nc2noc3cc(Nc4cc(C5CC5)[nH]n4)c(OC)cc23)c(OC)c1 (single isomer, unassigned) [Example 274]	KAT7+JADE1+EAF6+ING5 4 protein complex (Homo sapiens (Human))	6.9
COc1cc2c(NS(=O)(=O)c3c(OC)cc(N4CC[C@@H](F)C4)cc3OC)noc2cc1Nc1cc(C2CC2)n[nH]1 [Example 249]	KAT7+JADE1+EAF6+ING5 4 protein complex (Homo sapiens (Human))	1.7
COc1cc2c(NS(=O)(=O)c3c(OC)cc(N4CC[C@@H](OC)C4)cc3OC)noc2cc1Nc1cc(C2CC2)n[nH]1 [Example 250]	KAT7+JADE1+EAF6+ING5 4 protein complex (Homo sapiens (Human))	1.3
COc1cc2c(NS(=O)(=O)c3c(OC)cc(C(=O)N4CCC[C@H](F)C4)cc3OC)noc2cc1Nc1cc(C2CC2)n[nH]1 [Example 261]	KAT7+JADE1+EAF6+ING5 4 protein complex (Homo sapiens (Human))	6.7
COc1cc2c(NS(=O)(=O)c3c(OC)cc(N4CCN(C)CC4)cc3OC)noc2cc1Nc1cc(C2CC2)n[nH]1 [Example 251]	KAT7+JADE1+EAF6+ING5 4 protein complex (Homo sapiens (Human))	6.2

Task item: Form entry - test system: KAT7+JADE1+EAF6+ING5 4 protein complex (Homo sapiens (Human)); read-out: Ki; compound: COc1cc2c(NS(=O)(=O)c3c(OC)cc(N4C(=O)CCC4(C)C)cc3OC)noc2cc1Nc1cc(C2CC2)n[nH]1 [Example 256]
Reply: 4.7

====

molecular target: KAT7+BRPF1+EAF6+ING5 4 protein complex (Homo sapiens (Human), UniProt O95251); test: KAT7 BRPF1 assay (SAMDI-MS acetylation of H3 1-21 peptide); format: biochemical; details: Morrison equation fit; replicate number in parentheses
Assign labels as follows, please: t for Ki below 70 nM; f for Ki equal to or exceeding 70 nM.

Here's what some known entries look like.
compound	class assignment
COc1cc2c(NS(=O)(=O)c3ccccc3OC)noc2cc1Nc1cc(C)n[nH]1	t
COc1cc2c(NS(=O)(=O)c3c(OC)cc(C4CCCN4C)cc3OC)noc2cc1Nc1cc(C2CC2)n[nH]1 (racemic)	t
CCn1ccc(Nc2cc3onc(NS(=O)(=O)c4c(OC)cccc4OC)c3cc2OC)n1	f
CCOc1cc(C)c(F)cc1S(=O)(=O)Nc1noc2cc(Nc3cc[nH]n3)c(OC)cc12	f
COc1cc2c(NS(=O)(=O)c3cc(C)ccc3OC)noc2cc1Nc1cc[nH]n1	f
COc1cc2c(NS(=O)(=O)c3c(OC)cccc3OC)noc2cc1Nc1cc(C)n[nH]1	t
COc1cc(Nc2cc3onc(NS(=O)(=O)c4c(OC)cccc4OC)c3cc2OC)n[nH]1	t
COc1cc2c(NS(=O)(=O)c3c(OC)cccc3OC)noc2cc1Nc1cc[nH]n1	t
COc1cc2c(NS(=O)(=O)c3c(OC)cc(-c4cscn4)cc3OC)noc2cc1Nc1cc(C2CC2)n[nH]1	t
COC(=O)c1cc(Nc2cc3onc(NS(=O)(=O)c4c(OC)cccc4OC)c3cc2OC)[nH]n1	f

Task item: Please check: Ki for COc1cc2c(NS(=O)(=O)c3c(OC)cccc3OC)noc2cc1Nc1ncn(C)n1 , strictly under 70 nM or not?
Reply: t

Task item: Please check: Ki for COc1cc2c(NS(=O)(=O)c3c(OC)cccc3OC)noc2cc1Nc1cc(C(C)C)n[nH]1 , strictly under 70 nM or not?
Reply: t

Task item: Please check: Ki for COc1cc2c(NS(=O)(=O)c3c(OC)cccc3OCC(F)F)noc2cc1Nc1cc[nH]n1 , strictly under 70 nM or not?
Reply: f

Task item: Please check: Ki for COc1cc2c(NS(=O)(=O)c3c(OC)cccc3OC)noc2cc1Nc1cc(C2CCNCC2)n[nH]1 , strictly under 70 nM or not?
Reply: f

Task item: Please check: Ki for COc1cc2c(NS(=O)(=O)c3ccc(Cl)cc3OC)noc2cc1Nc1cc[nH]n1 , strictly under 70 nM or not?
Reply: f

Task item: Please check: Ki for COc1ccccc1S(=O)(=O)Nc1noc2cc(Nc3cc[nH]n3)cc(OC)c12 , strictly under 70 nM or not?
Reply: t

====

molecular target: KAT6A Full length enzyme (Homo sapiens (Human)); assay: KAT6A assay (SAMDI-MS acetylation of H3 1-21 peptide); assay type: biochemical; settings: Morrison equation fit; replicate number in parentheses; read-out: KAT6A Ki (nM) (replicate number)
Sequence (Q92794 other isoform, or with tags, fused parts or gaps): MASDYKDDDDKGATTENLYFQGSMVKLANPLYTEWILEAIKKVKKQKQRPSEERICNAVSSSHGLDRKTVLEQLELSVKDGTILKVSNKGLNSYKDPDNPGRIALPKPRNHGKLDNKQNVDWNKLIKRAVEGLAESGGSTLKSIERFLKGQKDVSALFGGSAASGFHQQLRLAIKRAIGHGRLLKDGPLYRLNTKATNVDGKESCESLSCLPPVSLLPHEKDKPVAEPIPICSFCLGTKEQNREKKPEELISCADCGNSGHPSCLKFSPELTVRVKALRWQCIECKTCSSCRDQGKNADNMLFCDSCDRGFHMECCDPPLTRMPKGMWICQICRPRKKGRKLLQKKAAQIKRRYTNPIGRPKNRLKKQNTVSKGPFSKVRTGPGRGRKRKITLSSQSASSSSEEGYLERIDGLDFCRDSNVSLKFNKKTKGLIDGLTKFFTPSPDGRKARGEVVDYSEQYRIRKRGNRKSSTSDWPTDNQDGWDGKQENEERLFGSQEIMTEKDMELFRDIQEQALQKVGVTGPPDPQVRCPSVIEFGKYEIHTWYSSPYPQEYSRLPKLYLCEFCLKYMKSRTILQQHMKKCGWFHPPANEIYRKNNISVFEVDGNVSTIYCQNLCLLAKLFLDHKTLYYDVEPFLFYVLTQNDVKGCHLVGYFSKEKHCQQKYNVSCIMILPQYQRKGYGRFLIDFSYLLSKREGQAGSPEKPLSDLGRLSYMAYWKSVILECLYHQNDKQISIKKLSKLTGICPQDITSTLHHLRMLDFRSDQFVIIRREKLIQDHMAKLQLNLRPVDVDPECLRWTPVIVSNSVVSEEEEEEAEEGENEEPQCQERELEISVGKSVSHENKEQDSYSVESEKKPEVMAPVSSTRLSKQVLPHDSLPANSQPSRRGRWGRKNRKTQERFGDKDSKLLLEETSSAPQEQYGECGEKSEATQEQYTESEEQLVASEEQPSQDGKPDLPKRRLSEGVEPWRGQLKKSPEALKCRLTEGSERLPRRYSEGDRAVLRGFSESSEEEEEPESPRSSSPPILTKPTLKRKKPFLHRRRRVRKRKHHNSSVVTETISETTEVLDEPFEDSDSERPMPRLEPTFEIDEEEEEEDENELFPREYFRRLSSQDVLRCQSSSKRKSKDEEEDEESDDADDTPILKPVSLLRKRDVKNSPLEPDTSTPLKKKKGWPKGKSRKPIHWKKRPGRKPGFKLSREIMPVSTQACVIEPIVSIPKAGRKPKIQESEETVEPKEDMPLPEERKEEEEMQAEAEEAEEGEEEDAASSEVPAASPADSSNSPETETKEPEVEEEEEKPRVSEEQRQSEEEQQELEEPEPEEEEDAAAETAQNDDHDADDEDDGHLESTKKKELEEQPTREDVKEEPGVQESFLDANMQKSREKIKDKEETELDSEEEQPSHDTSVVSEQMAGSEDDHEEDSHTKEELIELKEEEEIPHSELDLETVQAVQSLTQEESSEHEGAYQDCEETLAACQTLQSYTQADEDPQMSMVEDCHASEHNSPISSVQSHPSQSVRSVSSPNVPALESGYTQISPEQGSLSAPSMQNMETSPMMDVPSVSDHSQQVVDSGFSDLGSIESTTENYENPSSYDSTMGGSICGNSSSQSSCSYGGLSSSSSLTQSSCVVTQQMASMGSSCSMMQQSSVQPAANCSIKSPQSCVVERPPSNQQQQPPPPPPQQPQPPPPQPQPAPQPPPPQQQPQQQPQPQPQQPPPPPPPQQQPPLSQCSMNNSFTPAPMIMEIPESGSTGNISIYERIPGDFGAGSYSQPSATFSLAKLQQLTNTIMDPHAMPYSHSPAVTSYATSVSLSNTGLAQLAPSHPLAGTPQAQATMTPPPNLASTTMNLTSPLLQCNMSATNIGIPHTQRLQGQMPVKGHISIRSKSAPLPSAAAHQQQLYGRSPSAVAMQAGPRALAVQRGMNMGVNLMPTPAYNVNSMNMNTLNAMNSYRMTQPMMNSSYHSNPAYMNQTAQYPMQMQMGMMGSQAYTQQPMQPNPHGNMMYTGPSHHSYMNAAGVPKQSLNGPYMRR
The molecules listed here are annotated with their log10(Ki).
# values: log10(Ki), units nM

For orientation, consider the following solved cases.
molecule	log10(Ki)
COc1cc2c(NS(=O)(=O)c3c(OC)cc(N4C(=O)CCC4C)cc3OC)noc2cc1Nc1cc(C2CC2)n[nH]1 (single isomer, unassigned) [Example 244]	-0.70
COc1cc2c(NS(=O)(=O)c3ccccc3OC)noc2cc1Nc1cc(C(C)C)[nH]n1	0.93
COc1cc2c(NS(=O)(=O)c3cc4c(cc3OC)CCCC4)noc2cc1Nc1cc[nH]n1	-0.30
COc1cccc(OC2CCC2)c1S(=O)(=O)Nc1noc2cc(Nc3cc(C4CC4)n[nH]3)c(F)c(OC)c12	0.76
CCCc1ccc(S(=O)(=O)Nc2noc3cc(Nc4cc(CC)[nH]n4)c(OC)cc23)cc1	1.52
CCc1cc(Nc2cc3onc(NS(=O)(=O)c4cc(F)ccc4Br)c3cc2OC)n[nH]1	1.72
COc1cc2c(NS(=O)(=O)c3c(OC)cc(C4CCN([C@@H]5CCOC5)C4)cc3OC)noc2cc1Nc1cc(C2CC2)n[nH]1 (single isomer, unassigned) [Example 160]	0.00
COc1cc2c(NS(=O)(=O)c3c(OC)cccc3OC)noc2cc1Nc1n[nH]c(C)n1	0.00
CCc1cc(Nc2cc3onc(NS(=O)(=O)c4ccc(C(=O)NCCCCCNC(=O)c5ccc(-c6nnc(C)nn6)cc5)cc4OC)c3cc2OC)[nH]n1	0.08
COc1cccc(OC)c1S(=O)(=O)Nc1noc2cc(Nc3ncc[nH]3)cc(OC)c12	0.08

Task item: Entry COc1cc2c(NS(=O)(=O)c3ccccc3OC)noc2cc1Nc1cc(C)n[nH]1 : reported log10(Ki) = ?
Reply: -0.10

====

biological target: KAT8 Full length enzyme (Homo sapiens (Human)); experiment: KAT8 assay (SAMDI-MS acetylation of H3 1-21 peptide); type: biochemical; conditions: Morrison equation fit; replicate number in parentheses; read-out: KAT8 Ki (nM) (replicate number)
Sequence (Q9H7Z6 whole entry): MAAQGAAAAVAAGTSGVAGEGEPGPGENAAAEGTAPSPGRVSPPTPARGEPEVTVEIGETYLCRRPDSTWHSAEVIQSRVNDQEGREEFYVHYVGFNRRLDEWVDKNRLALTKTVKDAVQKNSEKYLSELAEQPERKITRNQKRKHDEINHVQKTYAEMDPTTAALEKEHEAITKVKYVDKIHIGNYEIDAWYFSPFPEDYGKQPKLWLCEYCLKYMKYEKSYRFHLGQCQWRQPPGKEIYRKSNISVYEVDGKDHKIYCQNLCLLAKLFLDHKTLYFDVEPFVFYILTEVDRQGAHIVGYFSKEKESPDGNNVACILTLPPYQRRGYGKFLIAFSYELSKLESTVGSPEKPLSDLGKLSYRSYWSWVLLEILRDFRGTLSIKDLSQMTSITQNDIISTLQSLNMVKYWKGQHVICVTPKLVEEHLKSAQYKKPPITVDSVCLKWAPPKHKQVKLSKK
experimental readout: Ki (nM)
Just the number please, in nM, no unit attached.

For orientation, consider the following solved cases.
molecule	Ki (nM)
COc1cc2c(NS(=O)(=O)c3c(OC)cc(-c4cnn(C)c4)cc3OC)noc2cc1Nc1cc(C2CC2)n[nH]1 [Example 123]	189
COc1cc2c(NS(=O)(=O)c3c(OC)cccc3OC)noc2cc1Nc1ncn(C)n1 [Example 35]	9110
COc1cc2c(NS(=O)(=O)c3c(OC)cccc3OC)noc2cc1Nc1cc(C2CCCC2)n[nH]1 [Example 85]	3380
CCc1cc(Nc2cc3onc(NS(=O)(=O)c4c(OC)cc(-c5ccc(C)nn5)cc4OC)c3cc2OC)[nH]n1 [Example 235]	2360
COc1cc2c(NS(=O)(=O)c3c(OC)cc(-c4ccccc4)cc3OC)noc2cc1Nc1cc(C2CC2)n[nH]1 [Example 119]	156

Task item: Form entry - test system: KAT8 Full length enzyme (Homo sapiens (Human)); read-out: Ki; molecule: COc1cc2c(NS(=O)(=O)c3c(OC)cc(-c4cccnc4)cc3OC)noc2cc1Nc1cc(C2CC2)n[nH]1 [Example 07]
Reply: 457

Task item: Form entry - test system: KAT8 Full length enzyme (Homo sapiens (Human)); read-out: Ki; molecule: COc1cc2c(NS(=O)(=O)c3c(OC)cc([C@@H]4CCCO4)cc3OC)noc2cc1Nc1cc(C2CC2)n[nH]1 [Example 140]
Reply: 911

Task item: Form entry - test system: KAT8 Full length enzyme (Homo sapiens (Human)); read-out: Ki; molecule: COc1cc2c(NS(=O)(=O)c3cc(C)c(C)cc3OC)noc2cc1Nc1cc[nH]n1 [Example 25]
Reply: 446

Task item: Form entry - test system: KAT8 Full length enzyme (Homo sapiens (Human)); read-out: Ki; molecule: CCc1cc(Nc2cc3onc(NS(=O)(=O)c4c(OC)cccc4OC)c3cc2OC)nn1C [Example 73]
Reply: 4330

Task item: Form entry - test system: KAT8 Full length enzyme (Homo sapiens (Human)); read-out: Ki; molecule: COc1cc2c(NS(=O)(=O)c3cc4c(cc3OC)CCCC4)noc2cc1Nc1cc[nH]n1 [Example 05]
Reply: 290

Task item: Form entry - test system: KAT8 Full length enzyme (Homo sapiens (Human)); read-out: Ki; molecule: CCOc1cc(C)c(F)cc1S(=O)(=O)Nc1noc2cc(Nc3cc(C(C)C)[nH]n3)c(OC)cc12 [Example 79]
Reply: 6570

Task item: Form entry - test system: KAT8 Full length enzyme (Homo sapiens (Human)); read-out: Ki; molecule: COc1cc2c(NS(=O)(=O)c3c(OC)cc(CN4CC(F)(F)C4)cc3OC)noc2cc1Nc1cc(C2CC2)n[nH]1 [Example 203]
Reply: 1220

Task item: Form entry - test system: KAT8 Full length enzyme (Homo sapiens (Human)); read-out: Ki; molecule: COc1cccc(OC)c1S(=O)(=O)Nc1noc2cc(Nc3cc(C4CC4)n[nH]3)c(F)c(OC)c12 [Example 71]
Reply: 4050

Task item: Form entry - test system: KAT8 Full length enzyme (Homo sapiens (Human)); read-out: Ki; molecule: COc1cc2c(NS(=O)(=O)c3c(OC)cc(C4CCCN(C)C4)cc3OC)noc2cc1Nc1cc(C2CC2)n[nH]1 (single isomer, unassigned) [Example 149]
Reply: 19000

Task item: Form entry - test system: KAT8 Full length enzyme (Homo sapiens (Human)); read-out: Ki; molecule: COc1cc2c(NS(=O)(=O)c3c(OC)cc(-c4ncc(N5CCN(C)CC5)cn4)cc3OC)noc2cc1Nc1cc(C2CC2)n[nH]1 [Example 226]
Reply: 572

Task item: Form entry - test system: KAT8 Full length enzyme (Homo sapiens (Human)); read-out: Ki; molecule: COc1cc2c(NS(=O)(=O)c3c(OC)cc(C4CCN(C)C4)cc3OC)noc2cc1Nc1cc(C2CC2)n[nH]1 (single isomer, unassigned) [Example 148]
Reply: 575

Task item: Form entry - test system: KAT8 Full length enzyme (Homo sapiens (Human)); read-out: Ki; molecule: COc1cc2c(NS(=O)(=O)c3c(OC)cccc3OC)noc2cc1Nc1cc(C2CC2)n[nH]1 [Example 47]
Reply: 1220
